- system tested: T1, human GIP receptor (human, UniProt P48546 22-466)
- T1 sequence (looked up): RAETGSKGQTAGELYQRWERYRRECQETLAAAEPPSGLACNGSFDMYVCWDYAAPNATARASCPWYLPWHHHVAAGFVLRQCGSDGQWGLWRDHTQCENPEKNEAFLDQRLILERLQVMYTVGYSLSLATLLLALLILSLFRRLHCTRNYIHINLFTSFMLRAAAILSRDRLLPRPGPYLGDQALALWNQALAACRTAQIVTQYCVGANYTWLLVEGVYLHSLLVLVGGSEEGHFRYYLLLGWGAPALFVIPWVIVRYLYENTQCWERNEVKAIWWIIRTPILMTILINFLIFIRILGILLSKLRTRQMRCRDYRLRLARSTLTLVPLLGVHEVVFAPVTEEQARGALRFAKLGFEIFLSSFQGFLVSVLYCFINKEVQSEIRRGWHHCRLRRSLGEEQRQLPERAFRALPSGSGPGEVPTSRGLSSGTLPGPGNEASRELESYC
- method notes: cell-based or functional assay
observable: EC50, cAMP (nM)
Only the number, expressed in nM, is required.

>  <binder>
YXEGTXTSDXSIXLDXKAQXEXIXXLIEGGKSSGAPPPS (Aib2, αMeF(2F)6, Ac5c10, αMeL13, Orn16, Aib20, αMeF22, D-Glu24, αMeY25, K17 and K31: K(AEEA2-(γ-Glu)-CO-(CH2)12-CO2H), C-terminal NH2) [Example 94]

>  <measured value>
0.0132

$$$$
>  <binder>
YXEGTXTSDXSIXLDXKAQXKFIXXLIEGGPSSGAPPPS (Aib2, αMeF(2F)6, 4Pal10, αMeL13, Orn16, Aib20, D-Glu24, αMeY25, K17 and K21: K(AEEA-(γ-Glu)-CO-(CH2)12-CO2H), C-terminal NH2) [Example 76]

>  <measured value>
0.0205

$$$$

Consider the record given below.
Value lookup for EC50, cAMP; key = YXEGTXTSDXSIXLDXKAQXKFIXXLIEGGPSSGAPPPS (Aib2, αMeF(2F)6, 4Pal10, αMeL13, Orn16, Aib20, D-Glu24, αMeY25, K17 and K21: K(AEEA2-(γ-Glu)-(4-(4-tert-butylphenyl)butanoyl)), C-terminal NH2) [Example 131] 0.0156

Values from patent US20230265151A1
